System Under Test: human CTLA-4 (human) (UniProt P16410)
Sequence (P16410 36-223): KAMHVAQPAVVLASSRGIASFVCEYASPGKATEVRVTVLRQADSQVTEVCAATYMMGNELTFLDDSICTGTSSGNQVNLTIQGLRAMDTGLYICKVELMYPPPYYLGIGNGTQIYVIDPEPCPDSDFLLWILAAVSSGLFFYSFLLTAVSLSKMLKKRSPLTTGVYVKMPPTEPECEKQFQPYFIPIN
Procedure Details: flow cytometry, CHO cells stably expressing CTLA4

Binder: CD80 E35D/M47V/N48K/V68M/K89N IgV-Fc, (EAAAK)3 linker (Fc fusion) VIHVTKEVKEVATLSCGHNVSVEELAQTRIYWQKDKKMVLTMMSGDVKIWPEYKNRTIFDITNNLSIMILALRPSDEGTYECVVLKYENDAFKREHLAEVTLSVKADEAAAKEAAAKEAAAK
MFI at 33.3 nM (MFI): 27100
--
Binder: variant CD80 IgV-Fc A26E/E35D/V68M/D90G (Fc fusion) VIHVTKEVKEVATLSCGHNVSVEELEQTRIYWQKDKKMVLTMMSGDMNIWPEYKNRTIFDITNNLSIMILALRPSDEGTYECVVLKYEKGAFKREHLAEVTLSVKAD
MFI at 33.3 nM (MFI): 13900
